src = ChEMBL document CHEMBL3352062

Reported pIC50 by item:
- Tested on: HT-29
- Assay Explanation: Antiproliferative activity against human HT-29 cells assessed as reduction in cell viability after 24 hrs by XTT assay
- Type: functional, cell-based
- Particulars: HT-29, 24 h
FYI, pIC50 means -log10 of a concentration in mol per litre.

Study these solved cases before continuing.
C[C@H](CCC(=O)N1CCN(Cc2ccccc2)CC1)[C@H]1CC[C@H]2[C@@H]3CC[C@@H]4C[C@H](O)CC[C@]4(C)[C@H]3C[C@H](O)[C@]12C : 4.49
C[C@H](CCC(=O)N1CCN(Cc2ccccc2)CC1)[C@H]1CC[C@H]2[C@@H]3[C@H](O)C[C@@H]4C[C@H](O)CC[C@]4(C)[C@H]3CC[C@]12C : 4.44

Can you look up the measured pIC50 of C[C@H](CCC(=O)N1CCN(C/C=C/c2ccccc2)CC1)[C@H]1CC[C@H]2[C@@H]3[C@H](O)C[C@@H]4C[C@H](O)CC[C@]4(C)[C@H]3CC[C@]12C for me?
4.46
